- Target Entity: CYP2C9 (Homo sapiens, UniProt P11712)
- Sequence (P11712 whole entry): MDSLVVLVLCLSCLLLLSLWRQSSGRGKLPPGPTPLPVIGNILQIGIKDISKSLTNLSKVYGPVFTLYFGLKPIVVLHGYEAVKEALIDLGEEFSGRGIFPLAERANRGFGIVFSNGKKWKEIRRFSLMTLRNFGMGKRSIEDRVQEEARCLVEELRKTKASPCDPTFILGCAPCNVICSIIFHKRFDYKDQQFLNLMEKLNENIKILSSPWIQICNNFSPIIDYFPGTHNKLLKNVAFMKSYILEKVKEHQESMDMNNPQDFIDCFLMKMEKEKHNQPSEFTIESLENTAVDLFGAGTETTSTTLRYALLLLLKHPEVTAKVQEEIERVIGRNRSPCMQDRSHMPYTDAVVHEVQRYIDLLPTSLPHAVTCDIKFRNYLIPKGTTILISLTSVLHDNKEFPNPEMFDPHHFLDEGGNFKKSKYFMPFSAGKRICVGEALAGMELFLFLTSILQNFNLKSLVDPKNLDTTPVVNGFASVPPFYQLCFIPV
pIC50: −log10 of the molar value.

Molecule: Nc1nc(Nc2ccnc(C(F)(F)F)c2)nc(-c2cccc(C(F)(F)F)n2)n1 [compound 2]
pIC50: 4.52

====

- Target Entity: UniProt P05177
- Sequence (P05177 1-516): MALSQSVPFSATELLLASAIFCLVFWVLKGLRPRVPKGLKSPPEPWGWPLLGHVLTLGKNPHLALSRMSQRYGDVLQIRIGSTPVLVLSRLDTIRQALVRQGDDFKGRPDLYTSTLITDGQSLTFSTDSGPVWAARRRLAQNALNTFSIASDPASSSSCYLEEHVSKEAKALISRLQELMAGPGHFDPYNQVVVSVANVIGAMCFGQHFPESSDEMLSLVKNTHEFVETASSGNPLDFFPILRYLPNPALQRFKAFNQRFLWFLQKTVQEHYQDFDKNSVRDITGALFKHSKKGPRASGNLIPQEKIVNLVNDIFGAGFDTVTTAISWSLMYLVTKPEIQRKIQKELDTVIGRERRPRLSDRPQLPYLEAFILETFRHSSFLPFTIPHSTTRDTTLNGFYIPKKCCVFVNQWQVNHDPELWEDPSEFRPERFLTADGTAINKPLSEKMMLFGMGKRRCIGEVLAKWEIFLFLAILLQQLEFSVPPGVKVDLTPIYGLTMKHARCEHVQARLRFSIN
pIC50: −log10 of the molar value.

Structure Notation: Nc1nc(Nc2ccnc(C(F)(F)F)c2)nc(-c2cccc(C(F)(F)F)n2)n1
Target Entity: UniProt P05177
pIC50: 6.37

====

- Target Entity: CYP2C8 (Homo sapiens)
- Sequence (P10632 whole entry): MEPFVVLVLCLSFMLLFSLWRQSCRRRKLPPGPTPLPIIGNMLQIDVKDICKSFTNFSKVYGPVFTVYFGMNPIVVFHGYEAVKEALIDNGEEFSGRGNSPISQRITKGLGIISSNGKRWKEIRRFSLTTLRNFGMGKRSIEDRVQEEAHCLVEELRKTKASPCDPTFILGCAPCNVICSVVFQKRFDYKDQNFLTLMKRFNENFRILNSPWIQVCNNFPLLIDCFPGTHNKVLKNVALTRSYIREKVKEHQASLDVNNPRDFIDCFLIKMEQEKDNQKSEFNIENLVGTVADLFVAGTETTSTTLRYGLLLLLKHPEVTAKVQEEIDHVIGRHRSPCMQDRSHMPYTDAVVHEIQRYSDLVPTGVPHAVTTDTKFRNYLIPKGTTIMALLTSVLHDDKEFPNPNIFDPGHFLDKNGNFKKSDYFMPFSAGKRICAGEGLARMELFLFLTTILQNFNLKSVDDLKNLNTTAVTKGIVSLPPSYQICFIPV
pIC50: −log10 of the molar value.
Assay Metric: pIC50

Structure Notation: Nc1nc(Nc2ccnc(C(F)(F)F)c2)nc(-c2cccc(C(F)(F)F)n2)n1
Target Entity: CYP2C8 (Homo sapiens)
Quantitative Result: 5.28

====

- System: TF-1/IDH2 (R140Q) mutant cells
- Assay Protocol: 2-HG levels in TF-1/IDH2 (R140Q) mutant cells
- Format: cell-based
- Measurement Context: 168 h, read-out: intracellular IC50 for 2-HG inhibition
Assay Metric: IC50

Compound: CC(C)(O)CNc1nc(Nc2ccnc(C(F)(F)F)c2)nc(-c2cccc(C(F)(F)F)n2)n1 [compound 3]
Target Entity: TF-1/IDH2 (R140Q) mutant cells
Assay Metric: IC50
Result: 16 nM
